Test system: SK-MEL-2
Test: NCI tumour cell line growth inhibition, 48 h
The source made the active and inactive calls. Cut-off read from the data, not from the text of the source: active = GI50 up to about 1.1 µM and inactive = higher. Where a SMILES comes first, the peptide text is derived from it. The star is where a group is joined. Cbz = O=C(OCc1ccccc1)*
PROPERTY_MEASURED: GI50

Sample answers from the record:
CC(=O)NC(CCCCNC(=O)N(CCCl)N=O)C(=O)NCc1ccccc1 (stereo not given): > 100 µM (inactive)
Cc1cc2oc(=O)c(Cl)c(Cl)c2c(C)c1Cl: 4.44 µM (inactive)
C[C@@H]1OC(=O)C[C@H]2CC(=O)N(CCC3CN(S(=O)(=O)C(F)(F)F)c4ccc(Cc5ccc6c(c5)C(CCN5C[C@H]7[C@@H](CC(=O)O[C@H]7C)CC5=O)CN6S(=O)(=O)C(F)(F)F)cc43)C[C@@H]21 (stereo not given in full): > 100 µM (inactive)
Cc1cc(/N=C/c2ccc(N(C)C)cc2)n(-c2ccccc2)n1: > 100 µM (inactive)
CCOC(=O)CCC(NC(=O)CNC(=O)CNC(=O)C(CCC(=O)OCC)NC(=O)C(CCC(=O)OCC)NC(=O)C(CCC(=O)OCC)NC(=O)OCc1ccccc1)C(=O)NC(CCC(=O)OCC)C(=O)NC(CCC(=O)OCC)C(=O)OCC (stereo not given) (Cbz-E(OEt)E(OEt)E(OEt)GGE(OEt)E(OEt)E(OEt)-OEt; configuration not given here): > 75 µM (inactive)

Continue with the next molecule.
Record request: GI50 value, item `CCOC(=O)[C@@H]1OC(c2ccccc2)O[C@H]1C(=O)OCC`
> 100 µM (inactive)

Provenance of the data: ChEMBL document CHEMBL1201862
